Origin of measurements: patent US9346815B2

# experimental.system: isolated recombinant JAK1 kinase domain (Homo sapiens (Human), UniProt P23458)
# Sequence (P23458 875-1153): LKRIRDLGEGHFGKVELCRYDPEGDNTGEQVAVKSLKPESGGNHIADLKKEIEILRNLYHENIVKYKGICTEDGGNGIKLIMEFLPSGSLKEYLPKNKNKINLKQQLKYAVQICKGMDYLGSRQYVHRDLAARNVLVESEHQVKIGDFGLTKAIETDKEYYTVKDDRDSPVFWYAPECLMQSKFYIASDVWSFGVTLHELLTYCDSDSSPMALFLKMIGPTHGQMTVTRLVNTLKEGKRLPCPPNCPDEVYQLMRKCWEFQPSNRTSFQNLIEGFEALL
# method.description: JAK1 enzyme assay (Caliper LabChip, peptide phosphorylation)
# Assay type: biochemical
# cond: isolated recombinant JAK1 kinase domain, 25 μM ATP
recorded.endpoint: pKi
Units for pKi: none; it is -log10 of a concentration expressed in mol/L.

Example entries and their recorded answers appear below.
compound	pKi
CC(C)(C)OC(=O)N1CC[C@@H](O)[C@H](n2cc(NC(=O)c3cnn4cccnc34)c(-c3cc(Cl)ccc3OC(F)F)n2)C1 (single isomer, unassigned)	8.58
O=C(Nc1cn(CCN2CCNCC2=O)nc1-c1cc(Cl)ccc1OC(F)F)c1cnn2cccnc12	8.54
C[C@@H]1COCCN1C1CCN(C(=O)Cn2cc(NC(=O)c3cnn4cccnc34)c(-c3cc(Cl)ccc3OC(F)F)n2)CC1	9.42

Asked: Please report the recorded pKi for "O=C(Nc1cn(CC(=O)N2CC[C@@H]3CNCC[C@@H]32)nc1-c1cc(Cl)ccc1OC(F)F)c1cnn2cccnc12" .
Given back: 9.29

Asked: Now the same for "CN1CCN(C2CCN(C(=O)Cn3cc(NC(=O)c4cnn5cccnc45)c(-c4cc(Cl)ccc4OC(F)F)n3)CC2)CC1=O"
Given back: 9.39

Asked: Now the same for "CN(CCc1ccccc1)C1CCN(C(=O)Cn2cc(NC(=O)c3cnn4cccnc34)c(-c3cc(Cl)ccc3OC(F)F)n2)CC1"
Given back: 9.07
